kon values for the binders below.
Target: T1, Recombinant human B7-H3 (human, UniProt Q5ZPR3 29-466, limits assumed)
T1 construct: also called CD276; B7RP-2
T1 sequence: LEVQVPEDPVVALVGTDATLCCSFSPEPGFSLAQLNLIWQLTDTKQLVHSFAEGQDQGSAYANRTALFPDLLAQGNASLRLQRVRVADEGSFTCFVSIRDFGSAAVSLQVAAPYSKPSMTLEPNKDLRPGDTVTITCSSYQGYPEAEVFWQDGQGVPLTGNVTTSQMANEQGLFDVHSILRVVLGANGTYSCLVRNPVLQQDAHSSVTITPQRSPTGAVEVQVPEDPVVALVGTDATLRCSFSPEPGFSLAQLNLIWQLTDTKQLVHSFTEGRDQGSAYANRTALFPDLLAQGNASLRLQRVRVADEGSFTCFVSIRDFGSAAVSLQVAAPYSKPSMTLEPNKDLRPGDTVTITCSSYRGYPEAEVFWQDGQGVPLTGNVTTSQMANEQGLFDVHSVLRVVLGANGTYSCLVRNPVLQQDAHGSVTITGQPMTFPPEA
Experiment: SPR (such as Biacore T200), against human B7-H3
Note: unit M⁻¹ s⁻¹ is implicit; provide only the numeric part.

SCT-Da250 (antibody, V domains shown) VH: QGQMQQSGAELVKPGASVRLSCKTSGFTFSSFYISWLKQKPGQSLEWIAWIYAGPGYTSYNQKFTGKAQLTVDTSSSTAYMQFSSLTTEDSAIYYCARHVGRQRGYFDVWGAGTTVTVSS VL: DIVMTQSHKFMSTSVGDRVSITCKASQDVSTAVAWYQQKPGQSPKLLIYSASYRYTGVPDHFTVSGSGTDFTFTISSVQAEDLAVYYCQQHYSTPWTFGGGTKLEIK | 402000

Now let's try a different one.
Incoming: Please look up its kon: SCT-Da192 (antibody, V domains shown) VH: EVQLQQSGPELVKPGASVKISCKTSGYTFTEYTMHWVKQSHGKSLEWIGVINPNNGGTTYNQKFKGKATLTVDKSSSTAYMELRSLTSEDSAVYYCARPHSLLRLRREFDYWGQGTTLTVSS VL: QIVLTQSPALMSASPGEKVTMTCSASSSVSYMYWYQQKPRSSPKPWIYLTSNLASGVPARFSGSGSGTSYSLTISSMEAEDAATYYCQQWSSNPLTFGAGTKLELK
Outgoing: 85100
